For each entry below, report its growth value.
System: E. coli TESEC Mtb Alr
Assay: growth (OD600 after 10 h); higher = more growth (less inhibition)
Conditions: arabinose 100000 nM; compound 0.1 mM; raw OD600 reference: median of DMSO wells 0.201, cell-free background 0.041
Structures can show the parent of a compound that is named as a salt.
Give bare numbers.

Recorded results for 2 molecules are shown here.
CC[N+](C)(CC)CCOC(=O)C1c2ccccc2Oc2ccccc21 [Methantheline bromide]: 0.18
CCc1cccc2c3c([nH]c12)C(CC)(CC(=O)O)OCC3 (centres undefined): 0.162

Could you report growth for every entry in the following list?
1. CCN(CC)Cc1cc(Nc2ccnc3cc(Cl)ccc23)ccc1O [Amodiaquin dihydrochloride dihydrate]
2. CCCc1cc(C(N)=S)ccn1 [Prothionamide]
3. CCCCC1C(=O)N(c2ccccc2)N(c2ccccc2)C1=O
4. CC(=O)Oc1cc(C(C)C)c(OCCN(C)C)cc1C [Moxisylyte hydrochoride]
5. COc1ccc2c3c1O[C@H]1C[C@@H](O)C=C[C@@]31CCN(C)C2 [Galanthamine hydrobromide]
6. NS(=O)(=O)c1cc2c(cc1Cl)NCNS2(=O)=O [Hydrochlorothiazide]

[out]
1: 0.181; 2: 0.184; 3: 0.124; 4: 0.179; 5: 0.218; 6: 0.234

[in] Quickly give me recorded growth for C[C@@H]1NC(=O)NC1=O
[out] 0.182

* * *

Tested on: E. coli TESEC Mtb Asd
Test: growth (OD600 after 10 h); higher = more growth (less inhibition)
Conditions: arabinose induction (level): High; compound 0.1 mM; raw OD600 reference: median of DMSO wells 0.331, cell-free background 0.041
Counter-ions that a name gives are not always drawn.
Quantity kind: growth
Answers are plain numbers.

Recorded results for 10 compounds are shown here.
CCOc1ccccc1OC(c1ccccc1)C1CNCCO1 (configuration not stated) [Reboxetine mesylate]: 0.249
O=C1C(O)=C(O)C(=O)C(O)=C1O [Tetrahydroxy-1,4-quinone hydrate]: 0.349
CCCCN1CCCCC1C(=O)Nc1c(C)cccc1C (configuration not stated) [Bupivacaine hydrochloride]: 0.257
CCCc1nn(C)c2c(=O)[nH]c(-c3cc(S(=O)(=O)N4CCN(C)CC4)ccc3OCC)nc12 [Sildenafil]: 0.233
CC(=O)OCC(=O)[C@@]12OC(C)(C)O[C@@H]1C[C@H]1[C@@H]3C[C@H](F)C4=CC(=O)C=C[C@]4(C)[C@@]3(F)[C@@H](O)C[C@@]12C [Fluocinonide]: 0.434
CO[C@H]1/C=C/O[C@@]2(C)Oc3c(C)c(O)c4c(O)c(c(/C=N/N5CCN(C6CCCC6)CC5)c(O)c4c3C2=O)NC(=O)/C(C)=C\C=C\[C@H](C)[C@H](O)[C@@H](C)[C@@H](O)[C@@H](C)[C@H](OC(C)=O)[C@@H]1C [Rifapentine]: 0.0584
COC(=O)C1=C(C)NC(C)=C(C(=O)OCC(C)C)C1c1ccccc1[N+](=O)[O-] (configuration not stated) [Nisoldipine]: 0.0578
O=c1[nH]cnc2c1ncn2[C@H]1CC[C@@H](CO)O1 [Didanosine]: 0.157
NCc1ccccc1CC(=O)N[C@@H]1C(=O)N2C(C(=O)O)=C(CSc3nnnn3CC(=O)O)CS[C@H]12 [Ceforanide]: 0.244
Cc1ccc(N(CC2=NCCN2)c2cccc(O)c2)cc1 [Phentolamine hydrochloride]: 0.252

Could you report growth for every entry in the following list?
1. CC1Cc2ccccc2N1NC(=O)c1ccc(Cl)c(S(N)(=O)=O)c1 (configuration not stated) [Indapamide]
2. NC(=O)OCC(O)COc1ccc(Cl)cc1 (configuration not stated) [Chlorphensin carbamate]
3. CC1=C(C(=O)O)N2C(=O)[C@@H](NC(=O)[C@H](N)c3ccc(O)cc3)[C@H]2SC1 [Cefadroxil]
4. Clc1ccc(Nc2nnc(Cc3ccncc3)c3ccccc23)cc1 [Vatalanib]

[out]
1. 0.224
2. 0.364
3. 0.294
4. 0.112

Could you report growth for every entry in the following list?
1. CN(C)CC/C=C1\c2ccccc2CSc2ccccc21 [Dosulepin hydrochloride]
2. OCCN1CCN(CC/C=C2/c3ccccc3Sc3ccc(Cl)cc32)CC1 [Zuclopenthixol dihydrochloride]

[out]
1. 0.14
2. 0.205

Could you report growth for every entry in the following list?
1. Oc1c(Cl)cc(Cl)c(Cl)c1Cc1c(O)c(Cl)cc(Cl)c1Cl [Hexachlorophene]
2. CC(=O)Oc1cc(C(F)(F)F)ccc1C(=O)O [Triflusal]
3. CC(C)(Oc1ccc(C2CC2(Cl)Cl)cc1)C(=O)O (configuration not stated) [Ciprofibrate]
4. C#CCN(C)CCCOc1ccc(Cl)cc1Cl [Clorgyline hydrochloride]
5. CCOC(=O)C(C)(C)Oc1ccc(Cl)cc1 [Clofibrate]
6. CCN(CC)C(C)CN1c2ccccc2Sc2ccccc21 (configuration not stated) [Ethopropazine hydrochloride]
7. OC(Cn1cncn1)(Cn1cncn1)c1ccc(F)cc1F [Fluconazole]
8. CCCCOc1cc(C(=O)NCCN(CC)CC)c2ccccc2n1 [Dibucaine]

[out]
[0.0582, 0.218, 0.26, 0.25, 0.279, 0.156, 0.267, 0.239]

* * *

Test system: E. coli TESEC Mtb Alr
Assay: growth (OD600 after 10 h); higher = more growth (less inhibition)
Settings: arabinose 1000000 nM; compound 0.1 mM; raw OD600 reference: median of DMSO wells 0.193, cell-free background 0.041
Where a name gives a salt, the structure may show the parent alone.
For each entry below, report its growth value.

Recorded results for 3 compounds are shown here.
C[C@H](CCC(=O)O)[C@H]1CC[C@H]2[C@@H]3C(=O)C[C@@H]4CC(=O)CC[C@]4(C)[C@H]3CC(=O)[C@]12C [Dehydrocholic acid]: 0.183
Nc1ccc(S(=O)(=O)NC(=O)c2ccccc2)cc1 [Sulfabenzamide]: 0.172
CC(C)(O)c1ccccc1CC[C@@H](SCC1(CC(=O)O)CC1)c1cccc(/C=C/c2ccc3ccc(Cl)cc3n2)c1: 0.206

Proceed to the following item.
[in] Print E. coli TESEC Mtb Alr growth for N=C(N)NC(=O)Cc1c(Cl)cccc1Cl [Guanfacine hydrochloride] .
[out] 0.143

* * *

Tested on: E. coli TESEC Mtb DapB
Test: growth (OD600 after 10 h); higher = more growth (less inhibition)
Details: arabinose induction (level): High; compound 0.1 mM; raw OD600 reference: median of DMSO wells […], cell-free background 0.041
Counter-ions that a name gives are not always drawn.
Quantity kind: growth
Give bare numbers.

Recorded results for 5 compounds are shown here.
CN(C)CCN1C(=O)c2ccccc2N(C)c2ccccc21 [Dibenzepine hydrochloride]: 0.165
CC(=O)[C@H]1CC[C@H]2[C@@H]3C=CC4=CC(=O)CC[C@@]4(C)[C@@H]3CC[C@]12C: 0.176
O=C(O)c1ccccc1C(=O)Nc1ccc(S(=O)(=O)Nc2nccs2)cc1: 0.212
NCCc1cc[nH]n1 [Betazole hydrochloride]: 0.215
CN(c1nccc(=O)[nH]1)C1CCN(c2nc3ccccc3n2Cc2ccc(F)cc2)CC1: 0.2

Could you report growth for every entry in the following list?
1. Cc1ccsc1/C=C/C1=NCCCN1C [Morantel tartrate]
2. CC(C(=O)O)c1ccc(N2Cc3ccccc3C2=O)cc1 (stereo not given)
3. CN(C)CCCN1c2ccccc2CCc2ccc(Cl)cc21 [Clomipramine hydrochloride]
4. CN(C)CCC[C@@]1(c2ccc(F)cc2)OCc2cc(C#N)ccc21 [Escitalopram oxalate]
5. CC(=O)CC(c1ccc([N+](=O)[O-])cc1)c1c(O)c2ccccc2oc1=O (stereo not given)

[out]
1: 0.205; 2: 0.206; 3: 0.0466; 4: 0.179; 5: 0.175

* * *

Test system: E. coli TESEC Alr+ wild-type control
Assay: growth (OD600 after 10 h); higher = more growth (less inhibition)
Conditions: compound 0.1 mM; raw OD600 reference: median of DMSO wells 0.49, cell-free background 0.052
Counter-ions that a name gives are not always drawn.
Quantity kind: growth
Numbers only.

CCCCc1nc(Cl)c(CO)n1Cc1ccc(-c2ccccc2-c2nnn[nH]2)cc1 [Losartan]: 0.495

Could you report growth for every entry in the following list?
1. C[C@@H]1C[C@H]2[C@@H]3CCC4=CC(=O)C=C[C@]4(C)[C@@]3(Cl)[C@@H](O)C[C@]2(C)[C@@]1(OC(=O)c1ccco1)C(=O)CCl [Mometasone furoate]
2. CCC1(c2ccccc2)NC(=O)N(C)C1=O (stereo not drawn) [Mephenytoin]
3. CCCC(=O)Nc1ncnc2c1ncn2[C@@H]1O[C@@H]2COP(=O)(O)O[C@H]2[C@H]1OC(=O)CCC [Bucladesine sodium salt]

[out]
1. 0.498
2. 0.501
3. 0.565

Could you report growth for every entry in the following list?
1. CC1=C(CC(=O)O)c2cc(F)ccc2/C1=C\c1ccc([S+](C)[O-])cc1 (stereo not drawn) [Sulindac]
2. CC(=O)c1ccc(S(=O)(=O)NC(=O)NC2CCCCC2)cc1 [Acetohexamide]
3. Cn1c(=O)c2c(ncn2CC2OCCO2)n(C)c1=O [Doxofylline]

[out]
1. 0.364
2. 0.526
3. 0.475

[in] Quickly give me recorded growth for CCCc1nn(C)c2c(=O)[nH]c(-c3cc(S(=O)(=O)N4CCN(C)CC4)ccc3OCC)nc12 [Sildenafil]
[out] 0.456
